# Tested on: human lung cancer strain NCI-H441
# Format: cell-based
MEASURED_PROPERTY: pIC50
pIC50 here: minus log base 10 of the concentration, concentration in moles per litre.

COMPOUND	pIC50
CCO[C@@H]1C[C@H]2C(=O)NC3(CCC3)C(=O)N(C)[C@@H](C(CC)CC)C(=O)N(C)[C@H](C)CC(=O)N(C)[C@@H](CC3CCCC3)C(=O)N[C@@H]([C@@H](C)CC)C(=O)N(C)CC(=O)N(C)[C@H]3C/C=C\CCN(C3=O)[C@@H](Cc3ccc(F)cc3)C(=O)N(C)CC(=O)N[C@@H](CCc3cc(F)c(C(F)(F)F)c(F)c3)C(=O)N2C1 [PP1523]	6.49

Alright, here's another compound for you.
Note to self: pIC50 recorded for CCO[C@@H]1C[C@H]2C(=O)NC3(CC(C)(C)C3)C(=O)N(C)[C@@H](C(CC)CC)C(=O)N(C)[C@H](C(=O)N(C)C)CC(=O)N(C)[C@@H](C(C)C)C(=O)N[C@@H]([C@@H](C)CC)C(=O)N(C)CC(=O)N(C)[C@H]3C/C=C\CCN(C3=O)[C@@H](Cc3ccc(C)cc3)C(=O)N(C)CC(=O)N[C@@H](CCc3ccc(C(F)(F)F)c(Cl)c3)C(=O)N2C1 [PP2158] was 7.60
